// provenance: patent US20260374861

system: human ILT4-ECD (human)
Sequence (chain, as listed by the source): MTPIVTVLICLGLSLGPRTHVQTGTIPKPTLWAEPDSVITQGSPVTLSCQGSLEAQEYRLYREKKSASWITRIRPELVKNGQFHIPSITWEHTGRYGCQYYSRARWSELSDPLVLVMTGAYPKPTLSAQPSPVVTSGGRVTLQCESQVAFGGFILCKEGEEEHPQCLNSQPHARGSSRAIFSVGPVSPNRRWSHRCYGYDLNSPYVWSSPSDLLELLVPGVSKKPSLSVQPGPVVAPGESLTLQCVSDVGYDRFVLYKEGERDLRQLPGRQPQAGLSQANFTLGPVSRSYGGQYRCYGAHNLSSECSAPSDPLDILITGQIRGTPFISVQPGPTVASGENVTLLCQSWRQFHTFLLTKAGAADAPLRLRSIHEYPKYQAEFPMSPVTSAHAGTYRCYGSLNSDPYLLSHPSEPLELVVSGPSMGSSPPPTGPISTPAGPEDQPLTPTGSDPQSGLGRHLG
assay explanation: ELISA
measured attribute: EC50 (nM)
Report the value in nM with no unit label.

Query: Consider the binder PR302949 (antibody, V domains shown) VH: EVQLLESGGGLVQPGGSLRLSCAASGFTFSSYAMSWVRQAPGKGLEWVSSISGSDFSTYYADSVKGRFTISRDTSKNTLYLQMNSLRAEDTAVYYCAKDRQWLVSSFDFWGQGALVTVSS VL: DIQMTQSPSSLSASVGDRVTITCQASQDISNYLNWYQQKPGKAPKLLIYDASNLETGVPSRFSGSGSGTDFTFTISSLQPEDIATYYCQQYDNLITFGQGTRLEIK and give its measured EC50.
Result: 0.023

Query: Likewise for PR302702 (antibody, V domains shown) VH: EVQLLESGGGLVQPGGSLRLSCAASGFTFSTYAMTWVRQAPGKGLEWVSSISGSDFNTYYADSVKGRFTISRDISKNTLYLQMNSLRAEDTAVYYCAKDQEWLVRSFHHWGQGTLVTVSS VL: DIQMTQFPSSLFAFVGDRVTITCQASQDISNYLNWYQQKAGKAPKLLINDASNLETGVPSRFSGSGFGTDFTFTISSLQPEDFATYYCQQYENLPTFGGGTKVEIK ?
Result: 0.029
